From: paper PMC10786891

Target: T1, EsCas13d, nuclease-dead (Eubacterium siraeum, UniProt B0MS50, R295A;H300A;R849A;H854A)
T1 sequence: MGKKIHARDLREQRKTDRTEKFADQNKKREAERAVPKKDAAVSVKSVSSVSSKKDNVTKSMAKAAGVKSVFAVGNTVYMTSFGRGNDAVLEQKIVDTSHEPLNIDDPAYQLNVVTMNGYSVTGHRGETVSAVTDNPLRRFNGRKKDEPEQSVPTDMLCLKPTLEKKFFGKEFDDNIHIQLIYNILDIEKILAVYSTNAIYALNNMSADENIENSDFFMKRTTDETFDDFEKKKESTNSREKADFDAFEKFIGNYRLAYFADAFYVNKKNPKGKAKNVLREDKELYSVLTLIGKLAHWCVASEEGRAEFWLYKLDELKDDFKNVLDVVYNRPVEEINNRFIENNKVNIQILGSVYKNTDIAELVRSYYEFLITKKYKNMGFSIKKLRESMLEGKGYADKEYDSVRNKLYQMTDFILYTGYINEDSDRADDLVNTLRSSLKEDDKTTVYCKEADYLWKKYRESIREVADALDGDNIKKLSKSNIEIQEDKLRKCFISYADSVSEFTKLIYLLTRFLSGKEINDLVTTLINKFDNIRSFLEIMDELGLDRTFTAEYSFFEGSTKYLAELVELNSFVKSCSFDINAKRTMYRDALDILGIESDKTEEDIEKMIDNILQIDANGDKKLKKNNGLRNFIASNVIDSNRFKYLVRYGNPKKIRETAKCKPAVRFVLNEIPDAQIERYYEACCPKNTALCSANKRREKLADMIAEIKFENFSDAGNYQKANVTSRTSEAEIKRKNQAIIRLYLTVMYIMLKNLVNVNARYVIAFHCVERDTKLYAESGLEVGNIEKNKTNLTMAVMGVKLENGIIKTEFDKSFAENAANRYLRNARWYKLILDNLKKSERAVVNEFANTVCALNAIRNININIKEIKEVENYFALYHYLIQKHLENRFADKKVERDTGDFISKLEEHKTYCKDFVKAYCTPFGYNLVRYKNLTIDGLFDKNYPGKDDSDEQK
Test: crRNA (strand 1, pre-loaded); Mg2+; 40 mM Tris-HCl pH 7.5, 150 mM NaCl, 6 mM MgCl2, 1 mM DTT, 0.1% Tween-20, 0.2 mg/ml BSA; 25 C; 10 min per concentration, then washed
Conditions: tags: His6-TwinStrep-SUMO cleaved; N-terminal SNAP kept (SNAP-Surface 488); label: 3' end held by stalled T7 RNA polymerase
readout-type: Kd

{"columns": ["binder", "Kd"],
 "data": [
  ["target 1 C6U,A18U (mixed) RNA 1: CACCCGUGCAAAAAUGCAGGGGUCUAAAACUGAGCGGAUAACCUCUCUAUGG RNA 2: GGGAAUGGAUCCACAUCUACGAAUUCGUACCAUUGAGAGGUUAUCUGCUCACCGAGAUCGGAAGAGCACACGU", "25.8 nM"]
]}

Input line: Please look up its Kd: target 1 G5U,G12A (mixed) RNA 1: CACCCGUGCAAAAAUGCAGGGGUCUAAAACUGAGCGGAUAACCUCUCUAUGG RNA 2: GGGAAUGGAUCCACAUCUACGAAUUCGUACCAUAGAGAGAUUAUCCUCUCACCGAGAUCGGAAGAGCACACGU
Output line: 42 nM
